biological target: recombinant human LTA4 hydrolase (rhLTA4H) (Homo sapiens, UniProt P09960); construct: made in house; host or cells: Spodoptera frugiperda (Sf-9) cells, baculovirus (pFastBac1); test: Recombinant human LTA4 hydrolase assay for LTA4 hydrolase inhibitor activity; format: biochemical; details: rhLTA4H, LTB4 by immunoassay; single determination or average of two or more; mark after value = form tested: ′ free base, ″ hydrochloride, ^ formate; read-out: IC50
Sequence (P09960 whole entry): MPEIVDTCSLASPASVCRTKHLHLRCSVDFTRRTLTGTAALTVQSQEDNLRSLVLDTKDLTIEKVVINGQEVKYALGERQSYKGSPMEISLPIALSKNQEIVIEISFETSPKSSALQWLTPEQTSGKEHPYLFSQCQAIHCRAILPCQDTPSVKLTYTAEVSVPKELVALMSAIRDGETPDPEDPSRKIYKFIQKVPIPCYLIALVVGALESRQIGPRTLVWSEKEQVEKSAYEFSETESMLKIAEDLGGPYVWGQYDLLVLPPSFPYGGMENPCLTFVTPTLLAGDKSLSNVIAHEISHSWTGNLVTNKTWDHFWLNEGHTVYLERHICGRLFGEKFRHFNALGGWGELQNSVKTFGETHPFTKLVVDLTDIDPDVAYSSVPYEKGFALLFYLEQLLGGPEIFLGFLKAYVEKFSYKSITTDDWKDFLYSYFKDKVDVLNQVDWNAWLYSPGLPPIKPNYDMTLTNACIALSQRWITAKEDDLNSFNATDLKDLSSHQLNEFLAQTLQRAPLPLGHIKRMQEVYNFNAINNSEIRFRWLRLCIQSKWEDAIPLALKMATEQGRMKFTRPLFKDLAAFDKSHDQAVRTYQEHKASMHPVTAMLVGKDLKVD
Readings of pIC50 for the listed compounds
The scale used: pIC50 is minus the common logarithm of the concentration in molar units.

**Q:** Quick check: pIC50 of CC(C)(C)OC(=O)C1CCN(Cc2cc3ccc(Oc4nc5ncccc5s4)cc3o2)CC1 [Example 225] ?
**A:** 6.12

**Q:** Quick check: pIC50 of CC(=O)N1CC2CN(Cc3coc4cc(Oc5nc6ncccc6s5)ccc34)CC2C1 (centres unmarked) [Example 211] ?
**A:** 7.96

**Q:** Quick check: pIC50 of CC(=O)N(C)C1CCN(Cc2coc3cc(Oc4nc5ncccc5s4)ccc23)C1 (centres unmarked) [Example 309] ?
**A:** 8.30

**Q:** Quick check: pIC50 of CC(=O)N[C@H]1C[C@H]2CC[C@@H](C1)N2Cc1cc2cc(Oc3nc4ncccc4s3)ccc2o1 [Example 87] ?
**A:** 7.46

**Q:** Quick check: pIC50 of CS(=O)(=O)N1CCN(Cc2coc3cc(Oc4nc5ncccc5s4)ccc23)CC1 [Example 243] ?
**A:** 8.22

More entries:
**Q:** Quick check: pIC50 of c1cnc2nc(Oc3ccc4cc(CN5CCOCC5)oc4c3)sc2c1 [Example 115] ?
**A:** 6.49

**Q:** Quick check: pIC50 of CCOC(=O)C1CCN(Cc2c[nH]c3cc(Oc4nc5ccccc5s4)ccc23)CC1 [Example 139] ?
**A:** 7.92

**Q:** Quick check: pIC50 of c1ccc2sc(Oc3ccc4[nH]cc(CN5CCCC5)c4c3)nc2c1 [Example 9] ?
**A:** 6.23
